The entries below are paired with their reported log10 kon.
TESTED ON: T1, recombinant human TIGIT (human, UniProt Q495A1 22-141, limits assumed)
T1 construct: recombinant human TIGIT used in Carterra SPR; also called hTIGIT
T1 sequence (looked up): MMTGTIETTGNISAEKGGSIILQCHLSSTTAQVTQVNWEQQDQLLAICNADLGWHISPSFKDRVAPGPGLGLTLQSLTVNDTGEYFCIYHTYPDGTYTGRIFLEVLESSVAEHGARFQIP
ASSAY REMARKS: SPR Carterra, average
Heads up, the numbers here are log10 of kon in M⁻¹ s⁻¹ units.

Solved cases below.
TIGIT-SC174 (Fc fusion, VHH-Fc fusion in assay) VHH: EVQLVESGGGLVQPGGSLRLSCAASGFLFDSYAMGWFRQAPGKEREFVAAISWSGGSTYYADSVKGRFTISADNSKNTAYLQMNSLKPEDTAVYYCTTDALRFLEWPWWGQGTLVTVSS; 5.65
TIGIT-SC101 (Fc fusion, VHH-Fc fusion in assay) VHH: EVQLVESGGGLVQPGGSLRLSCAASGRTFSSYAMGWFRQAPGKEREFVAAIDWSDGSTYYADSVKGRFTISADNSKNTAYLQMNSLKPEDTAVYYCARWYSSSGDYYYMDVWGQGTLVTVSS; 4.83
TIGIT-SC6 (Fc fusion, VHH-Fc fusion in assay) VHH: EVQLVESGGGLVQPGGSLRLSCAASGNTFSGGFMGWFRQAPGKEREWVASVLRGGYTWYADSVKGRFTISADNSKNTAYLQMNSLKPEDTAVYYCAISPVAWHAKFDSWGQGTLVTVSS; 4.82
TIGIT-SC198 (Fc fusion, VHH-Fc fusion in assay) VHH: EVQLVESGGGLVQPGGSLRLSCAASGFTFSPSWMGWFRQAPGKEREYVASVLRGGYTWYADSVKGRFTISADNSKNTAYLQMNSLKPEDTAVYYCASEGDPDYWGQGTLVTVSS; 5.01
TIGIT-SC116 (Fc fusion, VHH-Fc fusion in assay) VHH: EVQLVESGGGLVQPGGSLRLSCAASGFTFSPSWMGWFRQAPGKEREWVASVLRGGYTWYADSVKGRFTISADNSKNTAYLQMNSLKPEDTAVYYCDAADYWGQGTLVTVSS; 5.32

Lab book: log10 kon of TIGIT-SC49 (Fc fusion, VHH-Fc fusion in assay) VHH: EVQLVESGGGLVQPGGSLRLSCAASGRTFIGYHMGWFRQAPGKEREFVAAISWTGESTLYADSVKGRFTISADNSKNTAYLQMNSLKPEDTAVYYCARDDYGDYRRYFQHWGQGTLVTVSS noted as 5.11

In plain terms, TIGIT-SC159 (Fc fusion, VHH-Fc fusion in assay) VHH: EVQLVESGGGLVQPGGSLRLSCAASGFTFDRSWMGWFRQAPGKEREWVASVLRGGYTWYADSVKGRFTISADNSKNTAYLQMNSLKPEDTAVYYCAREGRSSSPWFDPWGQGTLVTVSS has a documented log10 kon of 4.96

Lab note: TIGIT-SC188 (Fc fusion, VHH-Fc fusion in assay) VHH: EVQLVESGGGLVQPGGSLRLSCAASGNTFSGGFMGWFRQAPGKEREWVASVLRGGYTWYADSVKGRFTISADNSKNTAYLQMNSLKPEDTAVYYCTTDSLPGWGQGTLVTVSS gave log10 kon of 4.63

// recorded log10 kon for TIGIT-SC211 (Fc fusion, VHH-Fc fusion in assay) VHH: EVQLVESGGGLVQPGGSLRLSCAASGFSFSMYVMGWFRQAPGKEREFVAAIWRSGTLKAYADSVKGRFTISADNSKNTAYLQMNSLKPGDTAVYYCARDHRAMVAPFDYWGQGTLVTVSS : 3.82

// recorded log10 kon for TIGIT-SC110 (Fc fusion, VHH-Fc fusion in assay) VHH: EVQLVESGGGLVQPGGSLRLSCAASGNTFSGGFMGWFRQAPGKEREWVASVLRGGYTWYADSVKGRFTISADNSKNTAYLQMNSLKPEDTAVYYCARDHTAMVAPFDYWGQGTLVTVSS : 5.73

So, TIGIT-SC119 (Fc fusion, VHH-Fc fusion in assay) VHH: EVQLVESGGGLVQPGGSLRLSCAASGNTFSGGFMGWFRQAPGKEREWVASVLRGGYTWYADSVKGRFTISADNSKNTAYLQMNSLKPEDTAVYYCAKDGGWFDPWGQGTLVTVSS ? Its log10 kon was 5.29

Record TIGIT-SC197 (Fc fusion, VHH-Fc fusion in assay) VHH: EVQLVESGGGLVQPGGSLRLSCAASGFTFDRSWMGWFRQAPGKEREWVASVLRGGYTWYADSVKGRFTISADNSKNTAYLQMNSLKPEDTAVYYCAREGRTAGWFDPWGQGTLVTVSS , field log10 kon: 5.23

Briefly, log10 kon measured for TIGIT-SC134 (Fc fusion, VHH-Fc fusion in assay) VHH: EVQLVESGGGLVQPGGSLRLSCAASGFTLENNMMGWFRQAPGKEREFVAAISASGTLRAYADSVKGRFTISADNSKNTAYLQMNSLKPEDTAVYYCARWYRVNNWSPGYYYYMDVWGQGTLVTVSS : 4.78

Documented log10 kon of TIGIT-SC136 (Fc fusion, VHH-Fc fusion in assay) VHH: EVQLVESGGGLVQPGGSLRLSCAASGFTLENNMMGWFRQAPGKEREFVAAISRSGTLKAYADSVKGRFTISADNSKNTAYLQMNSLKPEDTAVYYCARGGELTTFYFGYWGQGTLVTVSS : 5.32

Briefly, log10 kon measured for TIGIT-SC82 (Fc fusion, VHH-Fc fusion in assay) VHH: EVQLVESGGGLVQPGGSLRLSCAASGSMSSNYAMGWFRQAPGKEREFVAAIDWSGGNTYYADSVKGRFTISADNSKNTAYLQMNSLKPEDTAVYYCAKWFYYGSGLYTLDVWGQGTLVTVSS : 4.75
